targetUnderTest: human recombinant ETA receptors (Homo sapiens, UniProt P25101)
Sequence (P25101 21-427): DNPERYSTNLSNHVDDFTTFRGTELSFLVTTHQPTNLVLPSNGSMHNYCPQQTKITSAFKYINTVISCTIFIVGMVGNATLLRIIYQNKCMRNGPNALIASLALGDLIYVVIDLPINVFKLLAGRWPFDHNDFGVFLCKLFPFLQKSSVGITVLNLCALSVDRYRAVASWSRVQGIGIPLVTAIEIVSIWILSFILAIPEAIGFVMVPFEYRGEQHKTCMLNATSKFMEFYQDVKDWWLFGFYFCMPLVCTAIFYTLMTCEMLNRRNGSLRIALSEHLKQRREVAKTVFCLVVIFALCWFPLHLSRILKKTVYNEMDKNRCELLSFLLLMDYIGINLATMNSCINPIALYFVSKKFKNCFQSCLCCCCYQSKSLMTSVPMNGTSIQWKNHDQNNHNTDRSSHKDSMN
assayRemarks: Inhibition of [125I]ET-1 binding to membranes from CHO cells carrying human ETA receptors; also: 2.5% DMSO
attributeMeasured: IC50 (nM)

q: Can you look up IC50 on human recombinant ETA receptors (Homo sapiens, UniProt P25101) for CCS(=O)(=O)Nc1nc(C2CC2)nc(OCCOc2ncc(SC)cn2)c1-c1ccc(C)cc1 ?
a: 3.5

q: Another: CCS(=O)(=O)Nc1nc(C2CC2)nc(OCCOc2ncc(Br)cn2)c1-c1ccc(C)cc1
a: 5.5

q: Another: CCCS(=O)(=O)Nc1ncnc(OCCOc2ncc(Br)cn2)c1-c1ccc(C)cc1
a: 6.34

q: Another: CS(=O)(=O)Nc1ncnc(OCCOc2ncc(S(C)(=O)=O)cn2)c1-c1ccc(Br)cc1
a: 1.6

q: Another: COc1cnc(OCCOc2ncnc(NS(C)(=O)=O)c2-c2ccc(C)cc2)nc1
a: 23

P: CCS(=O)(=O)Nc1ncnc(OCCOc2ncc(SC)cn2)c1-c1ccc(Br)cc1
Q: CSc1cnc(OCCOc2ncnc(NS(C)(=O)=O)c2-c2ccc(C)cc2)nc1
q: Given the listed items, does P or Q have the lesser reported IC50? // output: label of the selected item
a: P

a: CCS(=O)(=O)Nc1ncnc(OCCOc2ncc(SC)cn2)c1Oc1ccccc1OC
b: CCCCS(=O)(=O)Nc1nc(-c2ncccn2)nc(OCCOc2ncc(SC)cn2)c1Oc1ccccc1OC
q: // which entry has the larger IC50 value, a or b ? // output: label of the selected item
a: a

1: CCCS(=O)(=O)Nc1ncnc(OCCOc2ncc(SC)cn2)c1Oc1ccccc1OC
2: CCCCS(=O)(=O)Nc1ncnc(OCCOc2ncc(Br)cn2)c1Oc1cccc(OC)c1
q: // which entry has the larger IC50 value, 1 or 2 ? // output: label of the selected item
a: 1

---

targetUnderTest: human recombinant ETA receptors (Homo sapiens)
assayRemarks: Inhibition of [125I]ET-1 binding to membranes from CHO cells carrying human ETA receptors; also: 2.5% DMSO
Description: 1) Inhibition of Endothelin Binding to Membranes from CHO Cells Carrying Human ET Receptors: For competition binding studies, membranes of CHO cells expressing human recombinant ETA or ETB receptors were used. The assay was performed in 200 uL 50 mM Tris/HCl buffer, pH 7.4, including 25 mM MnCl2, 1 mM EDTA and 0.5% (w/v) BSA in polypropylene microtiter plates. […]
attributeMeasured: IC50 (nM)

Answered examples (6):
q: Which IC50 value is on record for CCCS(=O)(=O)Nc1ncnc(OCCOc2ncc(S(C)(=O)=O)cn2)c1Oc1ccccc1OC ?
a: 11

q: Another: CCS(=O)(=O)Nc1ncnc(OCCOc2ncc(OC)cn2)c1Oc1ccccc1OC
a: 28

q: Another: CCCCS(=O)(=O)Nc1nc(-c2ncccn2)nc(OCCOc2ncc(Br)cn2)c1Oc1ccccc1OC
a: 6.5

q: Another: CCCS(=O)(=O)Nc1nc(-c2ncccn2)nc(OCCOc2ncc(Br)cn2)c1Oc1ccccc1OC
a: 11

q: Another: CCCS(=O)(=O)Nc1ncnc(OCCOc2ncc(Br)cn2)c1Oc1ccccc1OC
a: 11

q: Another: CCCCS(=O)(=O)Nc1ncnc(OCCOc2ncc(S(C)(=O)=O)cn2)c1Oc1cccc(OC)c1
a: 1.8

I: CCCCS(=O)(=O)Nc1nc(C2CC2)nc(OCCOc2ncc(OC)cn2)c1-c1ccc(C)cc1
II: CCS(=O)(=O)Nc1nc(-c2ncccn2)nc(OCCOc2ncc(SC)cn2)c1Oc1ccccc1OC
q: Given the listed items, does I or II have the lesser reported IC50? // output: label of the selected item
a: II
(II: 5.3 nM, I: 10 nM)
